# SUBJECT OF TEST: T1, human APJ receptor (human, UniProt P35414 1-380)
# T1 sequence (looked up): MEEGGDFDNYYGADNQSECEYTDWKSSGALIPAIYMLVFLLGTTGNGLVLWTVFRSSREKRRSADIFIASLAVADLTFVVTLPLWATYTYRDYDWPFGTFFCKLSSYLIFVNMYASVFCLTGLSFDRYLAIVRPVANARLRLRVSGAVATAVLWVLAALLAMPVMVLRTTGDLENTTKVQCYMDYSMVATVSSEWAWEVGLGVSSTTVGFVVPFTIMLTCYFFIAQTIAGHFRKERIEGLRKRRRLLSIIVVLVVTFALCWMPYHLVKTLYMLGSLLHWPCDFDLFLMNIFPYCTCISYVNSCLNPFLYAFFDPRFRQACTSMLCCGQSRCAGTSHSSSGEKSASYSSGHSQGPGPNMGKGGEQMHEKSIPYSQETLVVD
# TEST NAME: cell-based or functional assay
Starred links: 1 amine or outer side, 2 acyl side, 3 side chain; linkers in the order of their positions; H or OH if unused. Non-standard residues stand in square brackets, D forms with d. Primed or numbered codes have the meaning given here. *: point of attachment. AC4Abu = α-carboxy-4-aminobutyric acid, O=C(C(CCN[*:1])C(=O)[*:3])[*:2]; Oic = O=C(O)[C@@H]1C[C@@H]2CCCC[C@@H]2N1; Phe(4-Cl) = N[C@@H](Cc1ccc(Cl)cc1)C(=O)O; γGlu = O=C(O)[C@H](CCC(=O)[*:2])N[*:1]; B4ClF = β-4-chloro-L-phenylalanine; NMeR = CN[C@@H](CCCNC(=N)N)C(=O)O; Tridecanoyl = CCCCCCCCCCCCC(=O)*; hArg = N=C(N)NCCCC[C@H](N)C(=O)O; Cha = N[C@@H](CC1CCCCC1)C(=O)O; Nle = CCCC[C@H](N)C(=O)O; Orn = NCCC[C@H](N)C(=O)O; Pip′ = not defined here; Deg = CCC(N)(CC)C(=O)O; AEEA = NCCOCCOCC(=O)O; Aib = CC(C)(N)C(=O)O; BLeu = β-leucine
# strict inequality: EC50 Human APJ Receptor (GTPγS assay) < 1 nM yields condition met, everything else yields condition not met

{"BINDER": "Tridecanoyl-[AC4Abu][AEEA][AEEA]QRP[NMeR][Cha]SHKG[Deg][Nle]P[Phe(4-Cl)]-OH (SMILES CCCCCCCCCCCCC(=O)NCCC(C(=O)O)C(=O)NCCOCCOCC(=O)NCCOCCOCC(=O)N[C@@H](CCC(N)=O)C(=O)N[C@@H](CCCNC(=N)N)C(=O)N1CCC[C@H]1C(=O)N(C)[C@@H](CCCNC(=N)N)C(=O)N[C@@H](CC1CCCCC1)C(=O)N[C@@H](CO)C(=O)N[C@@H](Cc1c[nH]cn1)C(=O)N[C@@H](CCCCN)C(=O)NCC(=O)NC(CC)(CC)C(=O)N[C@@H](CCCC)C(=O)N1CCC[C@H]1C(=O)N[C@@H](Cc1ccc(Cl)cc1)C(=O)O) [Apelin polypeptide SEQ ID NO: 415]", "CLASS ASSIGNMENT": "condition not met"}
{"BINDER": "Tridecanoyl-[γGlu][AEEA][AEEA][dQ][hArg]P[dR][Cha]SHKG[Oic][Nle]P[B4ClF]-OH [Apelin polypeptide SEQ ID NO: 432]", "CLASS ASSIGNMENT": "condition not met"}
{"BINDER": "Tridecanoyl-[γGlu][AEEA][AEEA][Orn]F[hArg][hArg][BLeu][hArg]P[hArg][Cha]SHKG[Oic][Nle]P[Phe(4-Cl)]-OH [Apelin polypeptide SEQ ID NO: 307]", "CLASS ASSIGNMENT": "condition met"}
{"BINDER": "Tridecanoyl-[γGlu][AEEA][AEEA]QRP[Nle]LSHKGP[Nle]P[Phe(4-Cl)]-OH (SMILES CCCCCCCCCCCCC(=O)N[C@@H](CCC(=O)NCCOCCOCC(=O)NCCOCCOCC(=O)N[C@@H](CCC(N)=O)C(=O)N[C@@H](CCCNC(=N)N)C(=O)N1CCC[C@H]1C(=O)N[C@@H](CCCC)C(=O)N[C@@H](CC(C)C)C(=O)N[C@@H](CO)C(=O)N[C@@H](Cc1c[nH]cn1)C(=O)N[C@@H](CCCCN)C(=O)NCC(=O)N1CCC[C@H]1C(=O)N[C@@H](CCCC)C(=O)N1CCC[C@H]1C(=O)N[C@@H](Cc1ccc(Cl)cc1)C(=O)O)C(=O)O) [Apelin polypeptide SEQ ID NO: 428]", "CLASS ASSIGNMENT": "condition met"}
{"BINDER": "Tridecanoyl-[γGlu][AEEA][AEEA][dQ]R[Pip′][hArg][BLeu]SHKG[Oic][Nle][Aib][Phe(4-Cl)]-OH [Apelin polypeptide SEQ ID NO: 521]", "CLASS ASSIGNMENT": "condition not met"}
